target: Polyunsaturated fatty acid 5-lipoxygenase (Homo sapiens, UniProt P09917); test: The compound was evaluated for its inhibitory activity against 5-lipoxygenase using granulocytes-type cells
Sequence (P09917 whole entry): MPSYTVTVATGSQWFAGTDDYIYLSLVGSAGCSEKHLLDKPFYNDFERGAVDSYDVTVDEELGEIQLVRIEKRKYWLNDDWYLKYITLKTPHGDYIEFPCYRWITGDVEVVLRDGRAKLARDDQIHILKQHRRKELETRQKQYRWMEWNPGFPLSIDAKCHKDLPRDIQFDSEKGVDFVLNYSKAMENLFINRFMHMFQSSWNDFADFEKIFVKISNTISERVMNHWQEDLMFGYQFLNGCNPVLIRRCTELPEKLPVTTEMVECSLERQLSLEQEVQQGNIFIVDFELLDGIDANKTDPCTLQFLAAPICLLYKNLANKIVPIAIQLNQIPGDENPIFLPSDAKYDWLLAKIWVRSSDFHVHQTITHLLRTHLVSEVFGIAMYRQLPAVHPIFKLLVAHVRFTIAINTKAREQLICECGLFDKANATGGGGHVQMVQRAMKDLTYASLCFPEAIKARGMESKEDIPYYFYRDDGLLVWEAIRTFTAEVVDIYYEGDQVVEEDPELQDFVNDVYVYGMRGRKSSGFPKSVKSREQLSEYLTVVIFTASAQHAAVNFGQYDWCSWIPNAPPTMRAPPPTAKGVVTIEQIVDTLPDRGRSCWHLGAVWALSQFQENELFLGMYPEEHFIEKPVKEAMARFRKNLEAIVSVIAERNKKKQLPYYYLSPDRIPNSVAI
# pIC50 per record follows
// returns pIC50 (minus log10 of molar concentration), number only

1. Cc1cc(-c2ccccc2)n(-c2ccc(S(C)(=O)=O)cc2)n1
4.40
2. COC1(c2cc(F)cc(OCc3cc(-c4ccccc4)n(-c4ccc(S(C)(=O)=O)cc4)n3)c2)CCOCC1
8.52

Next item in the queue.
Input: Look up pIC50 for this compound: CCCCc1cc(-c2ccccc2)n(-c2ccc(S(C)(=O)=O)cc2)n1
Output: 5.22
